Entries annotated with measured Cmax
# Measurement Notes: in vivo
# Test Conditions: male, Wistar, rat, in vivo, ip, 40 mg/kg, Cmax, plasma; analyte after CD3O-ibogamine 40 mg/kg i.p.
Measured Endpoint: Cmax (ng/mL)

* CCC1CC2CC3c4[nH]c5ccc(O)cc5c4CCN(C2)C13 (centres unmarked) | 736
* [2H]C([2H])([2H])Oc1ccc2[nH]c3c(c2c1)CCN1C[C@H]2C[C@H](CC)C1[C@H]3C2 | 1230

---

# Measurement Notes: in vitro
# Test Conditions: human, microsomes, pH 7.4
Measured Endpoint: half-life (min)

* [2H]C([2H])([2H])Oc1ccc2[nH]c3c(c2c1)CCN1C[C@H]2C[C@H](CC)C1[C@H]3C2 | 30

---

# Measurement Notes: in vivo
# Test Conditions: male, Wistar, rat, in vivo, ip, 40 mg/kg, Cmax, plasma; analyte after ibogaine 40 mg/kg i.p.
# Procedure: Formulation strengths for intraperitoneal administration was 4 mg/mL. A weighed quantity of compound was combined with an appropriate volume of vehicle (10% ethanol and 90% normal saline), the mixture was warmed to 55° C. and vortexed until a clear yellowish solution was obtained. […] Healthy male Wistar rats (8-12 weeks old) weighing between 280 to 300 g were procured from Global, India. […] Temperature and humidity were recorded by auto-controlled data logger system. […]
Measured Endpoint: Cmax (ng/mL)

• CCC1CC2CC3c4[nH]c5ccc(O)cc5c4CCN(C2)C13 (stereo not shown) = 1460

---

# Measurement Notes: in vivo
# Test Conditions: male, Wistar, rat, in vivo, ip, 40 mg/kg, Tmax, plasma; analyte after ibogaine 40 mg/kg i.p.
Measured Endpoint: Tmax (h)

- CCC1CC2CC3c4[nH]c5ccc(O)cc5c4CCN(C2)C13 (stereo not shown): 1

---

# Measurement Notes: in vivo
# Test Conditions: male, Wistar, rat, in vivo, ip, 40 mg/kg, Tmax, brain; analyte after ibogaine 40 mg/kg i.p.
Measured Endpoint: Tmax (h)

* CCC1CC2CC3c4[nH]c5ccc(O)cc5c4CCN(C2)C13 (stereo not shown) [Noribogaine] | 1

---

# Measurement Notes: Metabolic stability and noribogaine formation in rat liver microsomes (RLM)
# Test Conditions: male, rat, microsomes, pH 7.4
Entries annotated with measured half-life at 10 μM
Measured Endpoint: half-life at 10 μM

• [2H]C([2H])([2H])Oc1ccc2[nH]c3c(c2c1)CCN1C[C@H]2C[C@H](CC)C1[C@H]3C2 = < 5 min
• CCOc1ccc2[nH]c3c(c2c1)CCN1C[C@H]2C[C@H](CC)C1[C@H]3C2 = 6 min

---

Entries annotated with measured Tmax
# Measurement Notes: in vivo
# Test Conditions: male, Wistar, rat, in vivo, ip, 40 mg/kg, Tmax, plasma; analyte after CD3O-ibogamine 40 mg/kg i.p.
Measured Endpoint: Tmax (min)

- CCC1CC2CC3c4[nH]c5ccc(O)cc5c4CCN(C2)C13 (centres unmarked): 60
- [2H]C([2H])([2H])Oc1ccc2[nH]c3c(c2c1)CCN1C[C@H]2C[C@H](CC)C1[C@H]3C2: 4.8
